Values compiled from the OligoGym collection.

This listing pairs sequences with measured target mRNA inhibition.
# Target Entity: KRAS
# Experimental Context: ASO, A431, 0.556 µM
After the bases stand the sugars from the 5' end (letter, count) and the backbone: PS all phosphorothioate, else s phosphorothioate and o phosphodiester by linkage. Methylation of C is not given here. e = 2'-O-(2-methoxyethyl) (MOE); k = constrained ethyl (cEt); d = 2'-deoxy (DNA)
Quantity: target mRNA inhibition (%)

[[record]]
monomer_sequence = "GTGTTTATGCAATGTT (sugars k3 d10 k3, PS)"
quantity = "target mRNA inhibition"
recorded_number = 52

[[record]]
monomer_sequence = "CCATTTATGTGACTAG (sugars k3 d9 k3 e1, PS)"
quantity = "target mRNA inhibition"
recorded_number = 47

[[record]]
monomer_sequence = "TGTTTATGCAATGTTA (sugars kkdddddddddkekek, PS)"
quantity = "target mRNA inhibition"
recorded_number = 46

[[record]]
monomer_sequence = "GTGTTTATGCAATGTT (sugars kkkddddddddkekek, PS)"
quantity = "target mRNA inhibition"
recorded_number = 55

[[record]]
monomer_sequence = "CATTCAAAGTTCACAT (sugars kkddddddddkekekk, PS)"
quantity = "target mRNA inhibition"
recorded_number = 7

[[record]]
monomer_sequence = "TGGTGTAACATAGGTT (sugars kkddddddddkekekk, PS)"
quantity = "target mRNA inhibition"
recorded_number = 33

[[record]]
monomer_sequence = "GCTATAATAATCCCCA (sugars k3 d10 k3, PS)"
quantity = "target mRNA inhibition"
recorded_number = 24

[[record]]
monomer_sequence = "CCATTCAAAGTTCACA (sugars kkddddddddkekekk, PS)"
quantity = "target mRNA inhibition"
recorded_number = 19

[[record]]
monomer_sequence = "GTGTTTATGCAATGTT (sugars kkddddddddddkeke, PS)"
quantity = "target mRNA inhibition"
recorded_number = 71

[[record]]
monomer_sequence = "TTGATTTGTCAGCAGG (sugars k3 d10 k3, PS)"
quantity = "target mRNA inhibition"
recorded_number = 60

[[record]]
monomer_sequence = "TGATTTGTCAGCAGGA (sugars k3 d9 k3 e1, PS)"
quantity = "target mRNA inhibition"
recorded_number = 52

[[record]]
monomer_sequence = "TTTCTGATGTGACTCA (sugars k3 d10 k3, PS)"
quantity = "target mRNA inhibition"
recorded_number = 23

[[record]]
monomer_sequence = "TGGTGTAACATAGGTT (sugars k3 d10 k3, PS)"
quantity = "target mRNA inhibition"
recorded_number = 35

